Tested on: SW-620 colon
test name: NCI-60 one-dose screen, 48 h (100 = growth as untreated, 0 = no growth, -100 = all killed)
assay setup: 10 µM unless noted
The panel holds about 83,000 compounds, 20% with a hit somewhere; the sample as a whole holds those more often.
Measured growth determines class: category 1: < 40%; category 2: ≥ 40% and < 90%; category 3: ≥ 90%

INSERT INTO measurements (compound, system_name, label_value) VALUES
  ('CC1=C(O)C(=O)C(c2c(C)cc(C)c(Br)c2C)=C(O)C1=O', 'SW-620 colon', 'category 2'),
  ('COc1c(-c2cc(-c3ccc(C)o3)[nH]c(=O)n2)c(O)cc2occc12', 'SW-620 colon', 'category 1');

Lab note: which band did CO[C@@]12[C@@H]3NC3CN1C1=C(C(=O)C(N)=C(C)C1=O)[C@@H]2COC(N)=O (some centres not stated) land in?
category 1

Could you tell me which band CCOC(C)(c1ccc(Cl)cc1)C1CCNCC1 (configuration not stated) belongs to?
category 2

----------
Test system: HT29 colon
test name: NCI-60 one-dose screen, 48 h (100 = growth as untreated, 0 = no growth, -100 = all killed)
assay setup: 10 µM unless noted
Compounds without any hit were thinned out: in the full panel of roughly 83,000, 20% have a hit.
Returns one of Met or Not met; Met when growth is >= 70%.

INSERT INTO measurements (compound, label_value) VALUES
  ('Fc1ccc2nc(-c3ccc(-c4noc(-c5ccc(Cl)cc5)n4)cc3)[nH]c2c1', 'Met'),
  ('COc1cc2nccc(Oc3ccc(NC(=O)C4(C(=O)Nc5ccc(F)cc5)CC4)cc3)c2cc1O', 'Met'),
  ('Cn1c(=O)c2[nH]c(Cc3ccc4c(c3)OCO4)nc2n(C)c1=O', 'Met');

Please indicate if the recorded growth for `Nc1ccc(C(OC(=O)c2cc3ccccc3c(Cc3c(O)c(C(=O)OC(c4ccc(N)cc4)(c4ccc(N)cc4)c4ccc(N)cc4)cc4ccccc34)c2O)(c2ccc(N)cc2)c2ccc(N)cc2)cc1` meets or exceeds 70%.
Not met

Identify whether the reported growth of the following compound is 70% or greater: `Cn1nc(C(F)(F)F)cc1-c1cc(Cl)c(OCc2ccc(Cl)cc2)c(-c2ccc(Cl)c(C(F)(F)F)c2)c1O`
Not met

Is reported growth greater than or equal to 70% here: `C=C(C)[C@@H]1CC[C@]2(C)[C@H](CC=C3[C@@H]4C[C@](C)(C(=O)N5CCN(C)CC5)CC[C@]4(C)CC[C@]32C)[C@@]1(C)CCC#N`
Not met

Confirm if growth reported for the compound `Cc1nc2ccc(Nc3nc(Cl)nc(N4CCOCC4)n3)cc2n1Cc1ccccc1` is 70% or above.
Met

Quick check, growth >= 70%? C#CC[C@@H]1C[C@]2(C)[C@H]3CC[C@@H]4[C@H]5C(C(=C)C)CC[C@]5(C(=O)NCCCN5CCN(CCCN)CC5)CC[C@@]4(C)[C@]3(C)CC[C@H]2C(C)(C)[C@H]1OC(C)=O (some centres not stated)
Not met

----------
Test system: NCI-H226 lung
test name: NCI-60 one-dose screen, 48 h
assay setup: 10 µM unless noted
About 83,000 compounds went through this panel and 20% of them were active in at least one assay; those are over-represented in the sample as a whole. Activity calls are given as the source filed them. The calls were made as follows: active = growth percent below 10; inactive = the rest.
Could you please pick one outcome from this set? active, inactive

Reference set (5 entries):
INSERT INTO assay_data (compound, label_value) VALUES
  ('Clc1ccc(-c2nc(Br)cn3ccnc23)cc1', 'inactive'),
  ('C#CC[C@@H]1C[C@]2(C)[C@H]3CC=C4[C@H]5[C@@H](C)[C@H](C)CC[C@]5(C(=O)NCCCN5CCN(CCCN)CC5)CC[C@@]4(C)[C@]3(C)CC[C@H]2C(C)(C)[C@H]1OC(C)=O', 'inactive'),
  ('CCc1ccc2c(c1)N(CCO)C1=C(C(=O)OC1)C2c1cccc(Cl)c1 (centres undefined)', 'inactive'),
  ('Cc1cc(N=Nc2ccc(-c3ccc(N=Nc4ccc(O)c(C(=O)O)c4)cc3)cc2)c(N)c(N=Nc2ccc(C(=O)O)cc2)c1N', 'inactive'),
  ('COc1ccc(-c2nsc3c2NC(=O)CC3c2cccc(F)c2)cc1 (centres undefined)', 'inactive');

Dear colleague, could you share the recorded outcome for `CCN1CCN(Cc2ccc(NC(=O)c3nc4ccc5[nH]ncc5c4c4c3CCCC4)cc2C(F)(F)F)CC1` when you have a moment?
inactive

Look up the recorded call for CCCCNCC(O)c1cc(-c2ccc(C(F)(F)F)cc2)nc(-c2ccc(C(F)(F)F)cc2)c1 (centres undefined) in this test.
active

Look up the recorded call for CC(OC(=O)Nc1cccc(Cl)c1)C(=O)O (centres undefined) in this test.
inactive

# lookup: test call for `CCc1ccc(-c2ccc(NC3CCCCCC3)nn2)cc1S(N)(=O)=O`
inactive

----------
System: RXF 393 renal
test name: NCI-60 one-dose screen, 48 h (100 = growth as untreated, 0 = no growth, -100 = all killed)
assay setup: 10 µM unless noted
Compounds without any hit were thinned out: in the full panel of roughly 83,000, 20% have a hit.
Recorded growth for the following molecules
Write the answer as a number in %, unit excluded.

# example entries with known answers
INSERT INTO results (molecule, measured_number) VALUES
  ('Cc1nc2c(-c3cnc(N)nc3)nc(N3CCOCC3)nc2n1C(C)C', -29.6),
  ('CC(=O)Nc1nonc1-c1nc2ccccc2n1Cc1ccc(C(C)(C)C)cc1', 65.8),
  ('COc1ccc(-c2[nH]nc(N)c2-c2cc(OC)c(OC)c(OC)c2)cc1', 20),
  ('CC(CN1CCN(C)CC1)CN1c2ccccc2Sc2ccc(C(F)(F)F)cc21 (stereo not given)', 18.7),
  ('CN1CCN(Cc2ccc(NC(=O)c3cnc(F)c(C#Cc4cnc(N)c5ncccc45)c3)cc2C(F)(F)F)CC1', -0.985);

Output growth of Cc1ccc(S(=O)(=O)NC(CCC(=O)Nc2ccc(Cl)cc2)C(=O)Nc2ccc(Cl)cc2)cc1 (stereo not given)
22.9

// fetch growth given entry `CCCc1n(Cc2ccc3ccccc3n2)cc[n+]1Cc1ccc2ccccc2n1`
48.7

Could you please provide reported growth for `CC(C)[C@H](CN)NC[C@H](C)NS(=O)(=O)c1ccc(C(C)(C)C)cc1` ? Thanks!
89.9

----------
System: UO-31 renal
test name: NCI-60 one-dose screen, 48 h (100 = growth as untreated, 0 = no growth, -100 = all killed)
assay setup: 10 µM unless noted
Protocol: Growth inhibition of the UO-31 human tumor cell line is measured as a screen for anti-cancer activity. Cells are grown in 96 well plates and exposed to the test compound for 48 hours. Compounds are tested at a single concentration, which is 10^-5 M for most compounds. The reported endpoint is percent growth (GI% or GIPRCNT), where numbers from 0 - 100% represent growth inhibition, and numbers from -100% - 0 represent cell death. For example, a value of 40 represents 60% growth inhibition. […]
This is part of a sample that, as a whole, favours compounds with a hit. Of some 83,000 tested, about 20% had one in any assay.
The label 1 (yes) is reserved for growth strictly under 50%; 0 (no) covers values equal to or above it.

INSERT INTO assay_data (molecule, label_value) VALUES
  ('COc1cc2c(cc1C)NC(=O)/C2=C\c1c[nH]c2ccccc12', '1 (yes)');

hey, is growth for COc1cc(C2CC(c3ccc(Cl)cc3)=NN2C=O)ccc1OS(=O)(=O)c1ccc(C)cc1 (stereo unspecified) lower than 50% or not?
0 (no)

----------
Test system: MDA-MB-435 melanoma
test name: NCI-60 one-dose screen, 48 h (100 = growth as untreated, 0 = no growth, -100 = all killed)
assay setup: 10 µM unless noted
The panel holds about 83,000 compounds, 20% with a hit somewhere; the sample as a whole holds those more often.
parameter: growth (%)
Answer in %, number only, no unit symbol.

Worked cases, answers included:
INSERT INTO results (compound, system_name, parameter, measured_number) VALUES
  ('Fc1cnccc1-c1nc2ccc3[nH]ncc3c2c2c1CCCC2', 'MDA-MB-435 melanoma', 'growth', 10.4),
  ('Cc1cc2nc3c(=O)[nH]c(=O)nc-3n(CC=O)c2cc1C', 'MDA-MB-435 melanoma', 'growth', 92.2),
  ('C=C(CN1CC=CCC1)[C@@H]1CC[C@]2(C(=O)OC)CC[C@]3(C)[C@H](CC[C@@H]4[C@@]5(C)CC[C@H](OC(C)=O)C(C)(C)[C@@H]5CC[C@]43C)[C@@H]12', 'MDA-MB-435 melanoma', 'growth', 90.7),
  ('CCCc1n(Cc2ccc3ccccc3n2)cc[n+]1Cc1ccc2ccccc2c1', 'MDA-MB-435 melanoma', 'growth', -6.36),
  ('CNC(=O)c1cc(Oc2ccc(NC(=O)c3[nH]c(SC)nc3-c3ccc(F)cc3)cc2)ccn1', 'MDA-MB-435 melanoma', 'growth', 21.2);

Using known records, supply growth for Clc1ncnc2scc(C3COc4ccccc4O3)c12 (centres undefined)
97.5

Return growth for the following compound: `CC[C@H](Nc1nc(N)nc(C2CC2)c1C#N)c1nc2cccc(NCc3ccc(C(=O)NO)cc3)c2c(=O)n1-c1ccccc1`
7.07

Using known records, supply growth for `O=S(=O)(NCC[C@@H]1C[C@H]1c1ccc2ccccc2c1)c1ccc(C(F)(F)F)cc1`
99.1

Tell me growth reported for `COc1ccc(NC(=O)/C=C/c2ccc(Cl)c(Cl)c2)cn1`
91.1
